- Test system: L. donovani strain MHOM-ET-67/L82 amastigotes
- runDescription: in vitro
- conditionDescription: mouse, Selectivity index: IC50 Cytotoxicity macrophages/ IC50 L. donovani
# selectivity ratio at 96 h per entry

Using the record for CC1CS(=O)(=O)CCN1/N=C/c1ccc([N+](=O)[O-])o1 (stereo not drawn) , report its selectivity ratio at 96 h. 13

Give the measured selectivity ratio at 96 h of O=C(O)c1nn(Cc2ccc(Cl)cc2Cl)c2ccccc12 . > 11

Quick one: selectivity ratio at 96 h of O=C(N/N=C/c1ccc([N+](=O)[O-])o1)c1ccc(O)cc1 [Nifuroxazide] ? 13

Please give the measured selectivity ratio at 96 h for this compound: CC(C)/N=c1\cc2n(-c3ccc(Cl)cc3)c3ccccc3nc-2cc1Nc1ccc(Cl)cc1 ~10

# selectivity ratio at 96 h lookup, item CCC[C@@]1(CCc2ccccc2)CC(O)=C([C@H](CC)c2cccc(NS(=O)(=O)c3ccc(C(F)(F)F)cn3)c2)C(=O)O1 > 30

# query: selectivity ratio at 96 h of entry CO[C@H]1/C=C/O[C@@]2(C)Oc3c(C)c(O)c4c(O)c(c(/C=N/N5CCN(C)CC5)c(O)c4c3C2=O)NC(=O)/C(C)=C\C=C\[C@H](C)[C@H](O)[C@@H](C)[C@@H](O)[C@@H](C)[C@H](OC(C)=O)[C@@H]1C > 24

Can you share its selectivity ratio at 96 h? I mean this compound: O=C1CN(/N=C/c2ccc([N+](=O)[O-])o2)C(=O)N1 59

Request the reported selectivity ratio at 96 h associated with Cc1cccc(N(C)C(=S)Oc2ccc3ccccc3c2)c1 [Tolnaftate] > 23

# get_value(readout='selectivity ratio at 96 h', item= C[C@H]1[C@H](OC(=O)CCC(=O)O)O[C@@H]2O[C@@]3(C)CC[C@H]4[C@H](C)CC[C@@H]1[C@@]24OO3 [Artesunate] ) > 22
